Source of measurements: patent US8129371B2

subjectOfTest: PI3K (Homo sapiens, UniProt P48736)
Construct: PI3 Kinase γ IC50; other: PI3 Kinase γ; other: PI3 Kinase γ isoform, fluorescence polarization
Sequence (P48736 whole entry, canonical isoform): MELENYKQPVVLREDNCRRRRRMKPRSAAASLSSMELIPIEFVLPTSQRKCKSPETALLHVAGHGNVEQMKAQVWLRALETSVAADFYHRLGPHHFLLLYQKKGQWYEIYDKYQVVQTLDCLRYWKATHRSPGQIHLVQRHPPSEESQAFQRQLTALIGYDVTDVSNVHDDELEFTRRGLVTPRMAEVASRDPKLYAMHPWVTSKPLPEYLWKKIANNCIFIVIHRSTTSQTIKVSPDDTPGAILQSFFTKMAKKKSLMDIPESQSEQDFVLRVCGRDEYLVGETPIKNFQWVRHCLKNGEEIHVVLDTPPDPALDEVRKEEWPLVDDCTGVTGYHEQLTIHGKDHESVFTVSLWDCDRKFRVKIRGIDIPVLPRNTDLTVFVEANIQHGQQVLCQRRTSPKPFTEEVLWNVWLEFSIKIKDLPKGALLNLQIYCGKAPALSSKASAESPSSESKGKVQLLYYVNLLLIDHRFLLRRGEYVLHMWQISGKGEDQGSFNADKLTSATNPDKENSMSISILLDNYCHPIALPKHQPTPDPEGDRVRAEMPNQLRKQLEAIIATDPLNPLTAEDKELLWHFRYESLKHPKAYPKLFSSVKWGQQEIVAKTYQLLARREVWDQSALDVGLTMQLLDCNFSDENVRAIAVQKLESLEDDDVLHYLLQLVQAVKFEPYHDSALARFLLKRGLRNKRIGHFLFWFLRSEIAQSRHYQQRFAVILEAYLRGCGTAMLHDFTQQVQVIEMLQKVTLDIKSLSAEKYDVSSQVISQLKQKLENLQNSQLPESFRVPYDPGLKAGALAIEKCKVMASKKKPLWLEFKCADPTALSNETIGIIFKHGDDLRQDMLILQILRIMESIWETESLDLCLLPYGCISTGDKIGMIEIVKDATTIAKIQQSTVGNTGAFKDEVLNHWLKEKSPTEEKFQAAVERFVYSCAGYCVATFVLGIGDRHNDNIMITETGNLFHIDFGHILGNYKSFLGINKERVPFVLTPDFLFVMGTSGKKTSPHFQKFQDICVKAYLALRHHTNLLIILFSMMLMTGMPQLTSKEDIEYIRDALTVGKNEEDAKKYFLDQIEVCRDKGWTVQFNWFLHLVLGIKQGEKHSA
protocolNotes: Fluorescence polarization assay for PI3K
Format: biochemical
appliedConditions: PI3 Kinase γ; read-out: PI3 Kinase γ IC50
recordedMetric: IC50 (µM)

I = Cn1ncc2c(N3CC4CCC(C3)O4)nc(-c3ccc(NC(=O)Nc4ccccc4)cc3)nc21
II = CN(C)CCn1ncc2c(N3CC4CCC(C3)O4)nc(-c3ccc(NC(=O)Nc4ccccc4)cc3)nc21
Q. Of I and II , whose reported IC50 is numerically smaller? Bench note: the answer is the label of the chosen record.
A. I
(I: 0.648 µM, II: 1.53 µM)

A = COC(=O)N1CCC(n2ncc3c(N4CC5CCC(C4)O5)nc(-c4ccc(NC(=O)NCCF)cc4)nc32)CC1
B = COC(=O)Nc1ccc(-c2nc(N3CC4CCC(C3)O4)c3cnn(C4CCN(C(=O)OC(C)C)CC4)c3n2)cc1
C = CN1CCN(c2ccc(NC(=O)Nc3ccc(-c4nc(N5CC6CCC(C5)O6)c5cnn(CCC#N)c5n4)cc3)cn2)CC1
Q. Arrange these compounds by their IC50, starting with the largest number. Arrange the labels as the request states and list them.
A. B, A, C
(B: 9.5 µM, A: 6.59 µM, C: 2.61 µM)
